Target Or System: Pparb (gmPparb) (Gadus morhua)
Sequence (A0A8C4ZA29 216-511 limits assumed): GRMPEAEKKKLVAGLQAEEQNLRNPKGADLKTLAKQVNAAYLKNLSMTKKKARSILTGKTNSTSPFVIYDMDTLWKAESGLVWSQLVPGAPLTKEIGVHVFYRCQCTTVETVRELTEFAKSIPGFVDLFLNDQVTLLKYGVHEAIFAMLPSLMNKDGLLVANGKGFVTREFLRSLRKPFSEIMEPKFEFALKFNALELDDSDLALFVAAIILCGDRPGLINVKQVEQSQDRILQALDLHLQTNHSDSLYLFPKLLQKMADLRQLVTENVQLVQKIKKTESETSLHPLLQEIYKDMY
Assay Overview: GAL4-LBD luciferase reporter gene assay in COS-7 cells
pEC50: −log10 of the molar value.

| Compound Structure String | pEC50 |
| --- | --- |
| Cc1cc(SCc2sc(-c3ccc(C(F)(F)F)cc3)nc2C)ccc1OCC(=O)O | 5.23 |
